- tested on: S. aureus alpha-toxin (Staphylococcus aureus, UniProt P09616)
- Sequence (P09616 27-319 limits assumed): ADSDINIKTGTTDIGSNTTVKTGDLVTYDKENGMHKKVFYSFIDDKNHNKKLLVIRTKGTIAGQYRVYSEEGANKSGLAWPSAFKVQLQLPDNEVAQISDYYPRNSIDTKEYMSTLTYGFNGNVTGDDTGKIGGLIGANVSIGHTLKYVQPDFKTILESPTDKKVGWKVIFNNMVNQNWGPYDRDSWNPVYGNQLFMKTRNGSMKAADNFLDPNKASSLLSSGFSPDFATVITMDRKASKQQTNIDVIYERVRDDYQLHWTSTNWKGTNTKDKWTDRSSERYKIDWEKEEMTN
value type: pKd
API: returns pKd as number; meaning -log10 of concentration in mol/L.

Consider the binder shown here: DF1.1 variant HCDR3-W10A/LCDR3-Y8A (antibody, V domains shown) VH: QVQLVQSGAEVKKPGSSVKVSCKTSGGTFNNVAINWVRQAPGQGLEWMGGIIPGLDTPNYAQKFQGRVTITADKSTTSTYLELSSLRSDDTAVYYCAREMEVSGRARPTEAFEIWGQGTMVTVSS VL: ETTLTQSPGTLSLSPGERATLSCRASQTISNNFVAWYQQKPGQAPRLLIYGASTRATGIPDRFSGSGSGTDFTLTISSLEPEDFAVYYCQQYGSSPATFGQGTKVDIK What is its recorded pKd? 6.36

Consider the binder shown here: DF1.1 variant HCDR3-A15R/LCDR3-Y3A (antibody, V domains shown) VH: QVQLVQSGAEVKKPGSSVKVSCKTSGGTFNNVAINWVRQAPGQGLEWMGGIIPGLDTPNYAQKFQGRVTITADKSTTSTYLELSSLRSDDTAVYYCAREMEVSGRWRPTERFEIWGQGTMVTVSS VL: ETTLTQSPGTLSLSPGERATLSCRASQTISNNFVAWYQQKPGQAPRLLIYGASTRATGIPDRFSGSGSGTDFTLTISSLEPEDFAVYYCQQAGSSPYTFGQGTKVDIK What is its recorded pKd? 6.55

Now look at this entry.
Consider the binder shown here: DF1.1 variant HCDR3-P12A/LCDR3-Y8A (antibody, V domains shown) VH: QVQLVQSGAEVKKPGSSVKVSCKTSGGTFNNVAINWVRQAPGQGLEWMGGIIPGLDTPNYAQKFQGRVTITADKSTTSTYLELSSLRSDDTAVYYCAREMEVSGRWRATEAFEIWGQGTMVTVSS VL: ETTLTQSPGTLSLSPGERATLSCRASQTISNNFVAWYQQKPGQAPRLLIYGASTRATGIPDRFSGSGSGTDFTLTISSLEPEDFAVYYCQQYGSSPATFGQGTKVDIK What is its recorded pKd? 7.43
